target: p70S6K(h) (Homo sapiens); construct: purchased Millipore (KinaseProfiler Service); test: Kinase assay, Millipore KinaseProfiler, radiometric; type: biochemical; settings: p70S6K(h) activity in presence of compound
Sequence (P23443 whole entry): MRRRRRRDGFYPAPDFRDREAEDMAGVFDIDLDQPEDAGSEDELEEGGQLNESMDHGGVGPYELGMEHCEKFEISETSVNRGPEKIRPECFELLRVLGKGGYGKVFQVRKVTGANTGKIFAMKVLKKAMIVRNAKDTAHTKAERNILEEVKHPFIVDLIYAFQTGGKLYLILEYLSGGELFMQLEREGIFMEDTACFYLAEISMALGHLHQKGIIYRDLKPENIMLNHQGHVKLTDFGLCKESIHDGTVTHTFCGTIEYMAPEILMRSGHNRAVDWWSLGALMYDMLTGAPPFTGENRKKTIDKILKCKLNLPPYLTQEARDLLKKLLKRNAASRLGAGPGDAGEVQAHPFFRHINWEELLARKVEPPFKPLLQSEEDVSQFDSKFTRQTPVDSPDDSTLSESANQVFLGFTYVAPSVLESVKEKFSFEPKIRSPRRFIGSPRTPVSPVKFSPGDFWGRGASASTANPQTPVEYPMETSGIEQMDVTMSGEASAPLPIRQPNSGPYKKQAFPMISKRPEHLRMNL
assay.readout: % Activity (%)

{"columns": ["smiles.string", "% Activity / %"],
 "data": [
  ["Cc1ccc(-n2c(-c3ccc(S(N)(=O)=O)cc3)nc3ccccc32)cc1", 33]
]}

(1) NS(=O)(=O)c1ccc(-c2nc3ccccc3n2-c2ccc(Cc3ccccc3)cc2)cc1
(2) NS(=O)(=O)c1ccc(-c2nc3ccccc3n2-c2ccc(Oc3ccccc3)cc2)cc1
Input line: Return label of the item with the larger % Activity. Candidates: 1 , 2 . Return value: the label identifying the chosen record.
Output line: 2

====

biological target: IKKβ(h) (Homo sapiens, UniProt O14920); construct: purchased Millipore (KinaseProfiler Service); test: Kinase assay, Millipore KinaseProfiler, radiometric; format: biochemical; conditions: IKKβ(h) activity in presence of compound
Sequence (O14920 whole entry): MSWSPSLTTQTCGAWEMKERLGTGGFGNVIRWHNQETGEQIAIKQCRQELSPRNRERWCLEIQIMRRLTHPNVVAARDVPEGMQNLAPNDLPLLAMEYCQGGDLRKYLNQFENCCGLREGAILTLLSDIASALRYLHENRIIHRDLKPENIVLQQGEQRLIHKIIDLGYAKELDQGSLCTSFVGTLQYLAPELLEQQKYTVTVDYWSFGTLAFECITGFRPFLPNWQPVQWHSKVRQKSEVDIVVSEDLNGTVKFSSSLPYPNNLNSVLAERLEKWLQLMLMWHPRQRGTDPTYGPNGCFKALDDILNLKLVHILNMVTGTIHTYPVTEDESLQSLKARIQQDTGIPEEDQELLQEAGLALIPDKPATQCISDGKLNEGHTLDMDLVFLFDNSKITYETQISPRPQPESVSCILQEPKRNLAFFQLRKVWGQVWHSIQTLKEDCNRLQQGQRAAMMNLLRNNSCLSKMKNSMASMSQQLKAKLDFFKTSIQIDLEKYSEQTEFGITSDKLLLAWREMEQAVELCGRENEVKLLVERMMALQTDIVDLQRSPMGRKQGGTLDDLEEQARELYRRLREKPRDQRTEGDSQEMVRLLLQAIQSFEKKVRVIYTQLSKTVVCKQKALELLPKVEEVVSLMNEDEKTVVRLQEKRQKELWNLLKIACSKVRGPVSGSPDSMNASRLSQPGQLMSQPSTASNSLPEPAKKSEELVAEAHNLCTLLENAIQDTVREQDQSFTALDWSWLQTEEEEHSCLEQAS
assay.readout: % Activity (%)

Would you please look over these solved cases?
{"columns": ["molecule", "assay.readout", "unit.text", "endpoint.result"],
 "data": [
  ["NS(=O)(=O)c1ccc(-c2nc3ccccc3n2-c2ccc(Oc3ccccc3)cc2)cc1 [Compound 210]", "% Activity", "%", 72],
  ["NS(=O)(=O)c1ccc(-c2nc3ccccc3n2-c2ccc(-c3ccccc3)cc2)cc1 [Compound 211]", "% Activity", "%", 71]
]}

(A) Cc1ccc(-n2c(-c3ccc(S(N)(=O)=O)cc3)nc3ccccc32)cc1 [Compound 206]
(B) NS(=O)(=O)c1ccc(-c2nc3ccccc3n2-c2ccc(Cc3ccccc3)cc2)cc1 [Compound 209]
Input line: Consider entries A and B . Which has the numerically lower % Activity? Return value: the label identifying the chosen record.
Output line: B

====

target: CK2(h) (Homo sapiens, UniProt P68400); construct: purchased Millipore (KinaseProfiler Service); assay: Kinase assay, Millipore KinaseProfiler, radiometric; format: biochemical; details: CK2(h) activity in presence of compound
Sequence (P68400 whole entry): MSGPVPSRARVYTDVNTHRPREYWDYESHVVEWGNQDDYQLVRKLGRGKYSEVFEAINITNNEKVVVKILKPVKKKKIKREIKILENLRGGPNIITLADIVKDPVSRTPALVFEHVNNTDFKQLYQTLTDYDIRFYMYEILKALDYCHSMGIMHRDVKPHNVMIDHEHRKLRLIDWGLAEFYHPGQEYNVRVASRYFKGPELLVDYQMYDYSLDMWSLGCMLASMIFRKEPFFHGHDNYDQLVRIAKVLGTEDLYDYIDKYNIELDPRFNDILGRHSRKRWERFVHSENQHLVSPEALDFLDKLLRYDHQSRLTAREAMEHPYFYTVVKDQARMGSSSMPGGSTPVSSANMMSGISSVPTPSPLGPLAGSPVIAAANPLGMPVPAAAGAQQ
Sequence (P67870 whole entry partner): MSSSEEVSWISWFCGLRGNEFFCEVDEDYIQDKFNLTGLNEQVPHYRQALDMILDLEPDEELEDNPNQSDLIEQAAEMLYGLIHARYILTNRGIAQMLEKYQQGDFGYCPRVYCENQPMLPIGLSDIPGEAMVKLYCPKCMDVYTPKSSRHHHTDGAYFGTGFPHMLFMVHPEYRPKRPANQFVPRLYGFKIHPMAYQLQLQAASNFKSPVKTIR
assay.readout: % Activity (%)

Would you please look over these solved cases?
{"columns": ["smiles.string", "% Activity (%)"],
 "data": [
  ["Cc1ccc(-n2c(-c3ccc(S(N)(=O)=O)cc3)nc3ccccc32)cc1", 92],
  ["NS(=O)(=O)c1ccc(-c2nc3ccccc3n2-c2ccc(-c3ccccc3)cc2)cc1", 99]
]}

(I) NS(=O)(=O)c1ccc(-c2nc3ccccc3n2-c2ccc(Cc3ccccc3)cc2)cc1
(II) NS(=O)(=O)c1ccc(-c2nc3ccccc3n2-c2ccc(Oc3ccccc3)cc2)cc1
Input line: Return label of the item with the larger % Activity. Candidates: I , II . Return value: the label identifying the chosen record.
Output line: II
(II: 99%, I: 22%)

====

biological target: GSK3β(h) (Homo sapiens); construct: purchased Millipore (KinaseProfiler Service); assay: Kinase assay, Millipore KinaseProfiler, radiometric; type: biochemical; details: GSK3β(h) activity in presence of compound
Sequence (P49841 whole entry): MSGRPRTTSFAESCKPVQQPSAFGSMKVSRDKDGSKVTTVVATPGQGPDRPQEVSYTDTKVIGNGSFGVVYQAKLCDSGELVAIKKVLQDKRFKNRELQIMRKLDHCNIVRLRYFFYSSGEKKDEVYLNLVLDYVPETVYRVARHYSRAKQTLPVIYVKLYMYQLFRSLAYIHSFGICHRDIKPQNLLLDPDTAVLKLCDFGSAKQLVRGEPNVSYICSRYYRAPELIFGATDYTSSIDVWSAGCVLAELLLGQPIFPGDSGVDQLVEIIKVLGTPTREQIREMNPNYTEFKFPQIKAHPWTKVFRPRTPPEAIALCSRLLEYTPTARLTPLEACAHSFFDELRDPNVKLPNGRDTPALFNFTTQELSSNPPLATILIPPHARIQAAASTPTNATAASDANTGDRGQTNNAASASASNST
assay.readout: % Activity (%)

Would you please look over these solved cases?
{"columns": ["smiles.string", "target", "endpoint.result"],
 "data": [
  ["Cc1ccc(-n2c(-c3ccc(S(N)(=O)=O)cc3)nc3ccccc32)cc1", "GSK3β(h) (Homo sapiens)", 72],
  ["NS(=O)(=O)c1ccc(-c2nc3ccccc3n2-c2ccc(Cc3ccccc3)cc2)cc1", "GSK3β(h) (Homo sapiens)", 5]
]}

(P) NS(=O)(=O)c1ccc(-c2nc3ccccc3n2-c2ccc(Oc3ccccc3)cc2)cc1
(Q) NS(=O)(=O)c1ccc(-c2nc3ccccc3n2-c2ccc(-c3ccccc3)cc2)cc1
Input line: Return label of the item with the larger % Activity. Candidates: P , Q . Return value: the label identifying the chosen record.
Output line: Q
(Q: 13%, P: 7%)

Reference for the values: patent US8334302B2
